target: PARP15 (Homo sapiens, UniProt Q460N3, R576E); construct: ART domain, Asn481-Ala678; assay: ITC; also HDX-MS
Sequence (Q460N3 481-678 R576E): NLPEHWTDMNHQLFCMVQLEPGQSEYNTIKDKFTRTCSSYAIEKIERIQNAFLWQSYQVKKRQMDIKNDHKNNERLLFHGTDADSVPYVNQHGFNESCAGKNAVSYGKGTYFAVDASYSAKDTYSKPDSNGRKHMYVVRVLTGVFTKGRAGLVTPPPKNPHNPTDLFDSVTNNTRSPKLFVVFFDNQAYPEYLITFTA
measure_name: Kd (µM)
Answer format: numeric, µM implied, no suffix.

[Q] Need Kd of Nc1ncnc2c1ncn2[C@@H]1O[C@H](C(=O)N2CCN(CC(=O)Nc3cccc4c3CNC4=O)CC2)[C@@H](O)[C@H]1O , thanks.
[A] 47

====

molecular target: PARP15 (Homo sapiens, UniProt Q460N3)
Sequence (Q460N3 481-678): as the sequence (Q460N3 481-678 R576E) above, with E96R counted along it
measure_name: Kd (µM)
Answer format: numeric, µM implied, no suffix.

[Q] Need Kd of Nc1ncnc2c1ncn2[C@@H]1O[C@H](C(=O)N2CCN(CC(=O)Nc3cccc4c3CNC4=O)CC2)[C@@H](O)[C@H]1O , thanks.
[A] 24
